assay: In vitro plasma stability assay (rat plasma); type: in vitro ADME; settings: plasma from male spontaneously hypertensive rats (SHR), read-out: Plasma stability (t1/2)
measured.parameter: half-life at 1 mg/mL

cpd.smiles	measured.parameter	observed.measurement
CC[C@H](C)[C@H](NC(=O)[C@H](Cc1ccc(O)cc1)NC(=O)[C@@H](NC(=O)[C@H](CCCNC(=N)N)NC(C)=O)C(C)C)C(=O)N[C@@H](Cc1c[nH]cn1)C(=O)N1CCC[C@H]1CC(=O)N[C@@H](Cc1c[nH]c2ccccc12)C(=O)O	half-life at 1 mg/mL	25.8 h
